These measurements were taken from the METLIN SMRT retention time set (Domingo-Almenara et al. 2019).

assay: gradient 5% acetonitrile 3 min, to 50% in 2 min, to 85% in 15 min, held 3 min, 100 µL/min; conditions: column: Zorbax Extend-C18 2.1 x 50 mm; eluents: water / acetonitrile, 0.1% formic acid
measuredQuantity: RP-LC retention time (s)

// solved cases for RP-LC retention time follow
I'd like to know its RP-LC retention time. The compound in question is CC1(c2nc(C3CC3)no2)CCCN(C(=O)c2ccc3nc[nH]c3c2)C1 (stereo not given)
595

I'd like to know its RP-LC retention time. The compound in question is COc1cc(CNC(=O)CCc2ccc(C(F)(F)F)cc2)cc(OC)c1OC
809

I'd like to know its RP-LC retention time. The compound in question is CCOC(=O)c1ccc(NC(=O)C2CCN(S(=O)(=O)c3ccc4[nH]c(=O)ccc4c3)CC2)cc1
783

P = CCn1nccc1-c1cccc(-c2noc(CCS(=O)(=O)c3ccc(C)cc3)n2)c1
Q = CC(=O)c1ccc(NC(=O)CC(C)n2cncn2)cc1 (stereo not given)
Please let me know which one, P or Q , has a lower measured RP-LC retention time value. Write down the label attached to your selection.
Q
(Q: 604 s, P: 993 s)

a = CCC(C)NC(=O)C1CCN(Cc2c(C)n(CC)c3ccccc23)CC1 (stereo not given)
b = COc1cccc(CN2C(=O)CSc3c(c4ccccc4n3C)C2C(=O)NCCCOC(C)C)c1 (stereo not given)
Which one would you say has the larger RP-LC retention time value: a , or b ? Write down the label attached to your selection.
b
(b: 955 s, a: 667 s)

a = Cc1cc(NC(=O)CSc2nnc3sc4ccccc4n23)no1
b = O=C(Cn1cc(-c2nc(-c3ccc(Cl)cc3)no2)ccc1=O)NC1CCCCC1
Which one would you say has the larger RP-LC retention time value: a , or b ? Write down the label attached to your selection.
b
(b: 1030 s, a: 668 s)

----------
test: gradient 5% acetonitrile 3 min, to 50% in 2 min, to 85% in 15 min, held 3 min, 100 µL/min; conditions: column: Zorbax Extend-C18 2.1 x 50 mm; eluents: water / acetonitrile, 0.1% formic acid
measuredQuantity: RP-LC retention time (s)

1 = O=C(NCc1csc(C2CCN(C(=O)Cc3ccccc3Cl)CC2)n1)C1CCC1
2 = CC1CCN(S(=O)(=O)c2cc(C(=O)N3CCN(c4ccc(Cl)cc4)CC3)n(C)c2)CC1
Please let me know which one, 1 or 2 , has a lower measured RP-LC retention time value. Write down the label attached to your selection.
1
(1: 753 s, 2: 1100 s)

----------
test: gradient 5% acetonitrile 3 min, to 50% in 2 min, to 85% in 15 min, held 3 min, 100 µL/min; conditions: column: Zorbax Extend-C18 2.1 x 50 mm; eluents: water / acetonitrile, 0.1% formic acid
measuredQuantity: RP-LC retention time (s)

I'd like to know its RP-LC retention time. The compound in question is COc1ccc(C(=O)N2C[C@@H]3C[C@H](NC(=O)c4cccs4)[C@H]2C3)cc1F
733

I'd like to know its RP-LC retention time. The compound in question is CCc1noc(NC(C)=O)c1-c1ccc(OC)c(S(=O)(=O)Nc2ccc(C)cc2Cl)c1
894

I'd like to know its RP-LC retention time. The compound in question is Cc1cnc(-c2ccccc2)n1CCNS(=O)(=O)N(C)C
572

I'd like to know its RP-LC retention time. The compound in question is Cc1cc(NC(=O)N2CCC(CN3CCCC(C)C3)CC2)ccc1Br (centres undefined)
682

I'd like to know its RP-LC retention time. The compound in question is O=C(NC1CCN(c2cc(-c3ccc(F)cc3)[nH]n2)C1)c1cccc(OC(F)(F)F)c1 (centres undefined)
840

I'd like to know its RP-LC retention time. The compound in question is O=C(NCC1(O)CCc2ccccc21)Nc1ccccc1Cl (centres undefined)
762

I'd like to know its RP-LC retention time. The compound in question is O=C(Cn1cnc2cc3c(cc21)OCCO3)Nc1ccc2c(c1)OCCCO2
622

a = COc1cccc(NC(=O)Cn2c(=O)c3cc(C4CC4)nn3c3ncccc32)c1
b = CCOc1ccc(C2Cn3nnc(-c4nc(-c5cccc(F)c5)no4)c3CO2)cc1 (centres undefined)
Which one would you say has the larger RP-LC retention time value: a , or b ? Write down the label attached to your selection.
b
(b: 1220 s, a: 763 s)

----------
experiment: gradient 5% acetonitrile 3 min, to 50% in 2 min, to 85% in 15 min, held 3 min, 100 µL/min; settings: column: Zorbax Extend-C18 2.1 x 50 mm; eluents: water / acetonitrile, 0.1% formic acid
measuredQuantity: RP-LC retention time (s)

// solved cases for RP-LC retention time follow
I'd like to know its RP-LC retention time. The compound in question is Cc1ccc(N2CCN(C(=O)c3ccc4ncnc(N5CCCC5)c4c3)CC2)cc1
668

I'd like to know its RP-LC retention time. The compound in question is O=C(C1CCCN(c2nc3cccnc3s2)C1)N1CCN(c2ccccc2)CC1 (centres undefined)
844

I'd like to know its RP-LC retention time. The compound in question is CCCNc1cc(N2CCC(CCC(=O)NCC3CC3)CC2)ncn1
560

I'd like to know its RP-LC retention time. The compound in question is CC1CCCN(c2nc(=O)n(CC(=O)Nc3ccc(F)cc3)c3ccccc23)C1 (centres undefined)
841

I'd like to know its RP-LC retention time. The compound in question is Cc1nc(N2CCN(c3ccccn3)CC2)c2c(C)c(C(=O)Nc3ccc(C)c(Cl)c3)sc2n1
821

I'd like to know its RP-LC retention time. The compound in question is Cc1ccc(-c2cc(NC(=O)C3CC3)on2)s1
869

I'd like to know its RP-LC retention time. The compound in question is NC(=O)c1cc(N2CCCC2)nc2c(Cl)cccc12
607

I'd like to know its RP-LC retention time. The compound in question is CCNC(=O)c1n[nH]c2c1CN(Cc1sccc1C)CC2
572

I'd like to know its RP-LC retention time. The compound in question is CCCNC(=O)C1CCCN(c2ccc(SCC(=O)Nc3ccccc3Br)nn2)C1 (centres undefined)
670

I'd like to know its RP-LC retention time. The compound in question is CCC1CCCCN1c1cc(SCC(=O)Nc2ccc(N(C)C)cc2)ncn1 (centres undefined)
709

a = CCc1ccc(NC(=O)N2CCC(C(=O)NCc3csc(C)n3)CC2)cc1
b = Cc1cc(C)cc(-c2nnc(Cc3nc(-c4ccccc4F)no3)o2)c1
Please let me know which one, a or b , has a lower measured RP-LC retention time value. Write down the label attached to your selection.
a
(a: 660 s, b: 1080 s)

a = CCOc1ccccc1N1CC(c2nc3ccccc3n2CCN2CCOCC2)CC1=O (centres undefined)
b = CCOc1ccc(Cc2nnc(SCC(=O)c3ccc(OC)cc3)o2)cc1
Please let me know which one, a or b , has a lower measured RP-LC retention time value. Write down the label attached to your selection.
a
(a: 610 s, b: 938 s)

----------
assay: gradient 5% acetonitrile 3 min, to 50% in 2 min, to 85% in 15 min, held 3 min, 100 µL/min; conditions: column: Zorbax Extend-C18 2.1 x 50 mm; eluents: water / acetonitrile, 0.1% formic acid
measuredQuantity: RP-LC retention time (s)

I'd like to know its RP-LC retention time. The compound in question is Cc1ccc(NC(=O)C2CC(=O)N(CCc3c[nH]c4ccc(F)cc34)C2)cc1C (stereo not given)
867

I'd like to know its RP-LC retention time. The compound in question is CN1C(=O)C(CC(=O)NCc2nc3ccccc3n2C)=C2CCCCC21 (stereo not given)
600

I'd like to know its RP-LC retention time. The compound in question is COc1ccc(CCC(=O)NC2CCN(c3nnc4cccc(C)n34)CC2)cc1
647

P = CC(=O)N1CCN(C(=O)[C@@]23CCCC[C@H]2N(CCC(C)C)C(=O)CC3)CC1
Q = Cc1ccccc1CNC(=O)C1CCN(S(C)(=O)=O)c2cc(Cl)ccc2O1 (stereo not given)
Which one would you say has the larger RP-LC retention time value: P , or Q ? Write down the label attached to your selection.
Q

P = O=C(CN1C(=O)C(C(=O)N2CCCC2)Sc2ccccc21)NCc1ccccc1 (stereo not given)
Q = O=C(Cn1cnc2ccccc2c1=O)NC1CC1
Please let me know which one, P or Q , has a lower measured RP-LC retention time value. Write down the label attached to your selection.
Q

1 = CC(C)N1CCCn2cc(S(=O)(=O)Nc3ccc(Oc4ccccc4)cc3)cc2C1=O
2 = CNC(=O)[C@@H]1CN(C(=O)c2cnccn2)C[C@H]1c1n[nH]c(C)n1
Which one would you say has the larger RP-LC retention time value: 1 , or 2 ? Write down the label attached to your selection.
1
(1: 909 s, 2: 539 s)

P = CCOc1ccccc1NC(=O)c1cn2c(n1)CCCC2
Q = Cc1ccccc1Nc1c(-c2ccc(Cl)cc2)nc2cnccn12
Please let me know which one, P or Q , has a lower measured RP-LC retention time value. Write down the label attached to your selection.
P
